This collection of values is drawn from patent US8999964B2.

system: HepG2 cells
READOUT_LABEL: EC50

* C[C@H](CCC(=O)O)[C@H]1CC[C@H]2[C@@H]3[C@@H](O)C[C@@H]4C[C@H](O)CC[C@]4(C)[C@H]3CC[C@]12C | > 1000 µM

====

Molecular target: CAR (Homo sapiens, UniProt Q14994)
Sequence (Q14994 109-352 limits assumed): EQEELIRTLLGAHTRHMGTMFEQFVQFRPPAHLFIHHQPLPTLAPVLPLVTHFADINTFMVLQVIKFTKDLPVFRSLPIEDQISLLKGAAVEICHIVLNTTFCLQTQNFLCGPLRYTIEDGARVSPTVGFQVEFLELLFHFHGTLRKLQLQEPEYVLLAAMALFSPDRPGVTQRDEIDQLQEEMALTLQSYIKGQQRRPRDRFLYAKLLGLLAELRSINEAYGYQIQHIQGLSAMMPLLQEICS
Test: CAR coactivator recruitment (Lanthascreen)
Conditions: Table 6; *: data representing inverse agonism; read-out: CAR Activation EC50
READOUT_LABEL: EC50

- C[C@H](CCC(=O)O)[C@H]1CC[C@H]2[C@@H]3[C@@H](O)C[C@@H]4C[C@H](O)CC[C@]4(C)[C@H]3CC[C@]12C: > 250 µM

====

biological target: PXR (Homo sapiens, UniProt O75469)
Sequence (O75469 whole entry, species assumed): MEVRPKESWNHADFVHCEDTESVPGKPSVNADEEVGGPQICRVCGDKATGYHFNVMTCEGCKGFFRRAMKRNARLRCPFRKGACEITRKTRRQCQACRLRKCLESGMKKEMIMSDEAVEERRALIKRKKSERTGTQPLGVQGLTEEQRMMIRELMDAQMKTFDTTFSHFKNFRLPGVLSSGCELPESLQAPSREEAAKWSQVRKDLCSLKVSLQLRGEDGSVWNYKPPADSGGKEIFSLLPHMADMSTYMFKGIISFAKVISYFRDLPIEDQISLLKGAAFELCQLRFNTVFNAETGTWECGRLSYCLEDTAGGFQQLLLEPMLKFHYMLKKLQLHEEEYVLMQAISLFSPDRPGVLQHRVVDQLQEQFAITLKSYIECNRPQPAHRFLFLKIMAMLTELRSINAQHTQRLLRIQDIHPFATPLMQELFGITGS
Structures can show the parent of a compound that is named as a salt.
READOUT_LABEL: IC50

- CC[C@H]1[C@@H](O)[C@@H]2[C@H](CC[C@]3(C)[C@@H]([C@H](C)CCC(=O)O)[C@@H](O)C[C@@H]23)[C@@]2(C)CC[C@@H](O)C[C@@H]12 [Compound 10, sodium salt]: 64 µM

====

assay: in vitro; settings: human
READOUT_LABEL: EC50 at 4 h (µM)

• C[C@H](CCC(=O)O)[C@H]1CC[C@H]2[C@@H]3[C@H](O)C[C@@H]4C[C@H](O)CC[C@]4(C)[C@H]3CC[C@]12C [CDCA, chenodeoxycholic acid, reference compound] = 650

====

biological target: hTGR5 (Homo sapiens); assay: cell-based; set-up: Human intestinal cell lines (NCI-H716) were plated in 96-well plates; endogenous in cells; conditions: Table 1; CRE-Luc reporter, HEK293T; read-out: Transactivation Assay hTGR5 EC50
Sequence (Q8TDU6 whole entry): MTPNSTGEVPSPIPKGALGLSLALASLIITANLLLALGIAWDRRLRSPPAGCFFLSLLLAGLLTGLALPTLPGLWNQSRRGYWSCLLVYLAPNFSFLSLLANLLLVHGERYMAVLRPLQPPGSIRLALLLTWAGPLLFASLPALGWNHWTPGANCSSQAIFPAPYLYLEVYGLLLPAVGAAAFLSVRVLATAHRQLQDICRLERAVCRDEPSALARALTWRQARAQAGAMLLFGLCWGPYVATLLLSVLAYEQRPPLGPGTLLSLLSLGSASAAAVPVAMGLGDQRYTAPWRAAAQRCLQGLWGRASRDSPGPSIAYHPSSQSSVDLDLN
Structures can show the parent of a compound that is named as a salt.
READOUT_LABEL: EC50 (µM)

- CC[C@H]1[C@@H](O)[C@@H]2[C@H](CC[C@]3(C)[C@@H]([C@H](C)CCC(=O)O)[C@@H](O)C[C@@H]23)[C@@]2(C)CC[C@@H](O)C[C@@H]12 [Compound 10, sodium salt]: 0.04

====

system: HepG2 cells; experiment: HepG2 cytotoxicity (ATP decrease, ATP-Lite); settings: read-out: CYTOTOXICITY ATP decrease EC50, 4 h
pEC50: −log10 of the molar value.
READOUT_LABEL: pEC50

* CN[C@@H]1C[C@H]2O[C@@](C)([C@@H]1OC)n1c3ccccc3c3c4c(c5c6ccccc6n2c5c31)C(=O)NC4 [Staurosporine] | 4.82
